ASSAY SYSTEM: internal research reagent human Fab (hFab)
EXPERIMENTAL DETAILS: SPR (Biacore T200), mAb captured by anti-rabbit mAb on CM5, antigen 80-0 nM, 1:1 fit
Assignment: determine reported Kd for the given binders.
Answers are plain numbers, in pM.

rabbit anti-human IgG monoclonal antibody clone 11F9 (antibody, V domains shown) VH: QQQLEESGGGLVQPEGSLTLTCIASGFSFSSSHWICWVRQAPGKGLEWIACMSTSSGSTYDANWAKGRFTISKTSSTTVTLQMTSLTAADTATYFCARDVGGSTTYFDLWGPGTLVTVSS VL: AYDMTQTPASVSEPVGGTVTIKCQASQSISNELSWYQQKPGQPPKLLIYRASTLASGVPSRFKGSGSGTQFTLTINGVECADAATYYCQQGYSISNVDNTFGGGTEVVVKG | 1120

For every item below, please supply its Kd.
1. rabbit anti-human IgG monoclonal antibody clone 9E6 (antibody, V domains shown) VH: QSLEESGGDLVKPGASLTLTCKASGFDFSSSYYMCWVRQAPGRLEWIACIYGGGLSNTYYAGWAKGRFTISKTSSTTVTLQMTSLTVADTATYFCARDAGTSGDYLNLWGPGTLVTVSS VL: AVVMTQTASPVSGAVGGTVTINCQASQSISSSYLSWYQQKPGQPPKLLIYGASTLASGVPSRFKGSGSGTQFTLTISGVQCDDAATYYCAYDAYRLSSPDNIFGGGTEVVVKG
2. rabbit anti-human IgG monoclonal antibody clone 2C5 (antibody, V domains shown) VH: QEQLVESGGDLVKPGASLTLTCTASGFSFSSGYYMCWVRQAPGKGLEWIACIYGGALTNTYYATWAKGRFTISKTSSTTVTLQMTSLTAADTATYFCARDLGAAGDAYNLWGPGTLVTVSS VL: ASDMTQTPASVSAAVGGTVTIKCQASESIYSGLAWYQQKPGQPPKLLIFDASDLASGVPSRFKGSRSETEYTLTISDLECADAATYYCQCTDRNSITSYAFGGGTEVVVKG
3. rabbit anti-human IgG monoclonal antibody clone 16F5 (antibody, V domains shown) VH: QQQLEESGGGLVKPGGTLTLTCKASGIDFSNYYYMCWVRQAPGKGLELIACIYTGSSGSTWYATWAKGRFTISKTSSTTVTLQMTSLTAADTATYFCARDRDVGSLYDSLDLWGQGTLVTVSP VL: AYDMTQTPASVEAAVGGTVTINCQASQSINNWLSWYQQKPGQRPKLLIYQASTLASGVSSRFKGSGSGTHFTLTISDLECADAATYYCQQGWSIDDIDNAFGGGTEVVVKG
4. rabbit anti-human IgG monoclonal antibody clone 19B1 (antibody, V domains shown) VH: QEQLVESGGGLVQPEGSLTLTCTASGFSFSDSYYMCWVRQAPGKGLEWIACIYGGTITNTYYASWAKGRFTISKTSSTTVTLQMTSLTAADTATYFCARDLGAAGDAYNLWGPGTLVTVSS VL: ASDMTQTPASVSEPVGGTVTIKCQASENIYSSLAWYQQKPGQPPKLLIYDASNLASGVPSRFSGSGSGTEFTLTISDLECADAATYYCQCTYRSSSSSYAFGGGTEVVVKG
5. rabbit anti-human IgG monoclonal antibody clone 11G5 (antibody, V domains shown) VH: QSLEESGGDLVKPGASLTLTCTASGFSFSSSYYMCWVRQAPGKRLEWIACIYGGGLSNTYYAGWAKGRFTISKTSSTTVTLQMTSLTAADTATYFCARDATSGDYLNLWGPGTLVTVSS VL: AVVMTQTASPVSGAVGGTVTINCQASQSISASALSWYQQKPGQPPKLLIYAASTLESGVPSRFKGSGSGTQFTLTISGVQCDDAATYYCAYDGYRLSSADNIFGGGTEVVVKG

OUT:
[518, 550, 1930, 540, 591]
